# maps each entry to its % inhibition at 10 μg/kg
- assayed target: aromatase (Rattus norvegicus, UniProt P22443)
- Construct: from tissue; host or cells: whole animal: adult female Wistar rats (endogenous enzyme)
- Sequence (P22443 whole entry): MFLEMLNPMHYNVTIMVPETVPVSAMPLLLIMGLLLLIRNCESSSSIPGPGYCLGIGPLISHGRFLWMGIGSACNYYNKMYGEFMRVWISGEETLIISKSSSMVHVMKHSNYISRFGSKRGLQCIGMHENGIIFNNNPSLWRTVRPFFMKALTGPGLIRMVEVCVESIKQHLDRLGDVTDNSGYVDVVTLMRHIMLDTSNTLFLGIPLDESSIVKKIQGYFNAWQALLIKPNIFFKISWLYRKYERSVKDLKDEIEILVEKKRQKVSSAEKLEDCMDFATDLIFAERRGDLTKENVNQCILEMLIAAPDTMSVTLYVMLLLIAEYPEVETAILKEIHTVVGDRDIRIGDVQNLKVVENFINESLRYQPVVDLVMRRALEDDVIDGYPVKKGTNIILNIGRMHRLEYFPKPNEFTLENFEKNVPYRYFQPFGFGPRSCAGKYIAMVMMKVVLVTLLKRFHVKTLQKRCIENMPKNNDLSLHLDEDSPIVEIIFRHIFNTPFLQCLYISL
- assay text: Inhibition of aromatase in vivo: inhibition of preovulatory surge of plasma estradiol in female Wistar rats
- recorded conditions: single oral dose 10 μg/kg on diestrus, plasma estradiol 24 h later, vs vehicle controls; range = independent studies
reported metric: % inhibition at 10 μg/kg

{"compound": "N#Cc1ccc(N(Cc2ccc(F)cc2)n2ccnc2)cc1", "assayed target": "aromatase (Rattus norvegicus, UniProt P22443)", "result": "49%-57%"}
{"compound": "CC(C)(C#N)c1cc(Cn2cncn2)cc(C(C)(C)C#N)c1 [Anastrozole, anastrozole, reference compound]", "assayed target": "aromatase (Rattus norvegicus, UniProt P22443)", "result": "18%-33%"}
{"compound": "N#Cc1ccc(CN(c2ccc(C#N)cc2)n2ccnc2)cc1", "assayed target": "aromatase (Rattus norvegicus, UniProt P22443)", "result": "57%-59%"}
{"compound": "N#Cc1ccc(N(Cc2ccc(Cl)cc2)n2ccnc2)cc1", "assayed target": "aromatase (Rattus norvegicus, UniProt P22443)", "result": "47%"}
{"compound": "N#Cc1ccc(N(Cc2ccc(Br)cc2)n2cncn2)cc1 [YM 511, reference compound]", "assayed target": "aromatase (Rattus norvegicus, UniProt P22443)", "result": "35%"}
{"compound": "N#Cc1ccc(N(Cc2ccc(F)c(F)c2)n2ccnc2)cc1", "assayed target": "aromatase (Rattus norvegicus, UniProt P22443)", "result": "60%"}
{"compound": "N#Cc1ccc(N(Cc2ccc(C(F)(F)F)cc2)n2ccnc2)cc1", "assayed target": "aromatase (Rattus norvegicus, UniProt P22443)", "result": "57%"}

----------
- assayed target: human aromatase (Homo sapiens, UniProt P11511)
- Construct: The JEG-3 cell line, derived from a human placental choriocarcinoma, is intrinsically very rich in human aromatase; endogenous in cells
- Sequence (P11511 whole entry): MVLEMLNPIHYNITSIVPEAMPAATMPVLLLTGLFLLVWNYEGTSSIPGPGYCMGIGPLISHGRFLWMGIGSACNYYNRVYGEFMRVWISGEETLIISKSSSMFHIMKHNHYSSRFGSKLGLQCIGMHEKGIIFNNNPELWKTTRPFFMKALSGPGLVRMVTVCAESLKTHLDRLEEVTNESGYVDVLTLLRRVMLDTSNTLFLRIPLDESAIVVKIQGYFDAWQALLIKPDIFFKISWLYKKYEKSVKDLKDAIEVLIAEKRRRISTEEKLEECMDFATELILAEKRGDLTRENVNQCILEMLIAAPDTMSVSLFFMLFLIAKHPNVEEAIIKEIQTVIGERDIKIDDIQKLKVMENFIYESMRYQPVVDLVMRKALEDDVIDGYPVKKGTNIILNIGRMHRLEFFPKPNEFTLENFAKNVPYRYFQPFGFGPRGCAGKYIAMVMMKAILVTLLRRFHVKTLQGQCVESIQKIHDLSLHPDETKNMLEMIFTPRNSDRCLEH
- assay text: Inhibition of human aromatase in vitro in JEG-3 cells (3H-water release from 1β-3H-androstenedione)
- recorded conditions: 10 nM 1β-3H-androstenedione, 2 h incubation
pIC50: −log10 of the molar value.

{"molecule": "CSc1ccc(CN(c2ccc(C#N)cc2)n2ccnc2)cc1 [Example 15]", "pIC50": 9.68}
{"molecule": "N#Cc1ccc(N(c2ccc(C#N)cc2)n2ccnc2)cc1 [Example 13]", "pIC50": 9.36}
{"molecule": "Cc1ccc(CN(c2ccc(C#N)cc2)n2ccnc2)cc1 [Example 10]", "pIC50": 9.85}
{"molecule": "N#Cc1ccc(N(Cc2ccccc2)n2ccnc2)cc1 [Example 24]", "pIC50": 9.74}
{"molecule": "N#Cc1ccc(CN(c2ccc(Br)cc2)n2ccnc2)cc1 [Example 21]", "pIC50": 8.95}

----------
Structures can show the parent of a compound that is named as a salt.
# maps each entry to its melting point

{"molecule": "COC(=O)c1ccc(CN(c2ccc(C#N)cc2)n2ccnc2)cc1", "melting point, °C": 178}
{"molecule": "Cc1cn(N(Cc2ccc(Br)cc2)c2ccc(C#N)cc2)cn1", "melting point, °C": 152}
{"molecule": "N#Cc1ccc(N(Cc2ccc(Br)cc2)n2ccnc2)cc1 (as salt: hydrochloride)", "melting point, °C": 125}
{"molecule": "N#Cc1ccc(N(c2ccc(C#N)cc2C(F)(F)F)n2ccnc2)cc1", "melting point, °C": 166}
{"molecule": "N#Cc1ccc(N(Cc2ccc(Cl)cc2)n2ccnc2)cc1 (as salt: hydrochloride)", "melting point, °C": 190}
{"molecule": "N#Cc1ccc(CN(c2ccc(Br)cc2)n2ccnc2)cc1", "melting point, °C": 138}
{"molecule": "Cn1nnc2ccc(N(Cc3ccc(C#N)cc3)n3ccnc3)cc21", "melting point, °C": 184}
{"molecule": "N#Cc1ccc(N(Cc2cccc(C(F)(F)F)c2)n2ccnc2)cc1", "melting point, °C": 122}
{"molecule": "COc1ccc(CN(c2ccc(C#N)cc2)n2ccnc2)cc1 (as salt: hydrochloride)", "melting point, °C": 178}
{"molecule": "N#Cc1ccc(N(Cc2ccc(C(F)(F)F)cc2)n2ccnc2)cc1", "melting point, °C": 134}
{"molecule": "N#Cc1ccc(N(Cc2cc(F)cc(F)c2)n2ccnc2)cc1", "melting point, °C": 170}
